# key: entry, value: Kd
# assayed.system: T1, EGFR (recombinant human, BLI antigen) (human, UniProt P00533 25-645)
# T1 construct: also called rh-EGFR; human EGFR
# assay.remarks: BLI (Octet) as in Example 1
Please respond with the number in nM and leave the unit unwritten.

Some binders with recorded Kd:
IN: For the binder pgEG-SX6 (VHH, not shown: small tags and cut ends) VHH: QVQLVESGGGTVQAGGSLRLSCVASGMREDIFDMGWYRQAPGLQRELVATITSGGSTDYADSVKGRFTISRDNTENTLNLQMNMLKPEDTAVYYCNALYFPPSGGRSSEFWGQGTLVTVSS , what Kd is on record?
OUT: 0.798

IN: For the binder pgEG6 (VHH, not shown: small tags and cut ends) VHH: QVQLVESGGGLVQPGGSLRLSCVASGIIFEAEAMGWYRQAPGKQRESVAFIGSGGNTNVGWSVKGRFTISRDNAKNTVYLQMNSLKPEDTAVYYCNTHPLRSWGQGTQVTVSS , what Kd is on record?
OUT: 27.9

IN: For the binder pgEG-SX3 (VHH, not shown: small tags and cut ends) VHH: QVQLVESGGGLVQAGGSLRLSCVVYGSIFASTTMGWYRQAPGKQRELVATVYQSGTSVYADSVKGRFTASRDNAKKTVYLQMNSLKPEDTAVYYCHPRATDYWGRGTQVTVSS , what Kd is on record?
OUT: 0.602

Others:
IN: For the binder pgEG-SX22 (VHH, not shown: small tags and cut ends) VHH: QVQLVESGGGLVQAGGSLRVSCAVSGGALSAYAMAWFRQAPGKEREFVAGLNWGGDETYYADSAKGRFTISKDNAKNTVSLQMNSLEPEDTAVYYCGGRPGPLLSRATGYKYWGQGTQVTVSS , what Kd is on record?
OUT: 0.464

IN: For the binder pgEG12 (VHH, not shown: small tags and cut ends) VHH: QVQLVESGGGLVQAGGSLSLSCTASRNIFSINVMSWYRQAPGKQREFVASITREDFPYYTDSVKGRFTVTRDIANNKVHLQMNSLKLEDTAVYYCNAYYRSDNYWGQGTQVTVSS , what Kd is on record?
OUT: 12.5
